The molecules listed here are annotated with their The cumulative amount of test compounds.
measurement-setup: human, 8 h, pH 7.4
Counter-ions that a name gives are not always drawn.

molecule	The cumulative amount of test compounds (mg)
Br.CNCC(=O)OC(C)OC(=O)NCCc1ccc(OC(=O)c2ccccc2)c(OC(=O)c2ccccc2)c1 (stereo not shown) [Compound-3]	5.01
CC(OC(=O)NCCc1ccc2c(c1)OC(=O)CC(N)C(=O)O2)OC(=O)C(C)C (stereo not shown) [Compound-8b]	4.85
CC(C)OC(=O)[C@H](Cc1ccc(OC(=O)c2ccccc2)c(OC(=O)c2ccccc2)c1)NC(=O)OC1CCN2CCCCC12 (stereo partly shown) [Compound-22, acetate]	3.61
CC(C)OC(=O)[C@@H](N)Cc1ccc(OC(=O)c2ccccc2)c(OC(=O)c2ccccc2)c1.Cl [Compound-11]	4.71
CNCC(=O)NCCc1ccc(OC(=O)c2ccccc2)c(OC(=O)c2ccccc2)c1.Cl [Compound-1]	5.25
CC(C(=O)SCCN(C)C)c1cccc(Oc2ccccc2)c1.Cl (stereo not shown) [Compound-26]	9.31
CCN(CC)CCOC(=O)c1ccccc1Nc1c(Cl)ccc(C)c1Cl [Compound-23]	6.85
CCCN(CCC)CCOC(=O)c1cc(-c2ccc(F)cc2F)ccc1OC(C)=O.Cl [Compound-27]	8.25
CC(C)OC(=O)[C@H](Cc1ccc(OC(=O)c2ccccc2)c(OC(=O)c2ccccc2)c1)NC(=O)CN.Cl [Compound-16]	4.49
CNCC(=O)Oc1ccc(C[C@H](NC(=O)OC(C)OC(=O)C(C)C)C(=O)OC(C)C)cc1OC(=O)c1ccccc1 (stereo partly shown) [Compound-21(a), hydrochloride]	4.37
CCC(CC)C(=O)Oc1ccc(CCNC(=O)OC2CCC3CCCCN3C2)cc1OC(=O)C(CC)CC (stereo not shown) [Compound-7]	5.05
CNCC(=O)Oc1cc(C[C@H](NC(=O)OC(C)OC(=O)C(C)C)C(=O)OC(C)C)ccc1OC(=O)c1ccccc1 (stereo partly shown) [Compound-21(b), hydrochloride]	4.19
CCOC(=O)[C@@H](N)Cc1ccc(OC(C)=O)c(OC(C)=O)c1.Cl [Compound-14]	4.82
Cl.NC(Cc1ccccc1)C(=O)NCCc1ccc(OC(=O)c2ccccc2)c(OC(=O)c2ccccc2)c1 (stereo not shown) [Compound-4]	4.93
CCCCC(=O)Oc1ccc(C[C@H](N)C(=O)OC(C)C)cc1OC(=O)CCCC.Cl [Compound-13]	4.23
Br.CCC(CC)OC(=O)[C@@H](N)Cc1ccc(OC(=O)C(C)C)c(OC(=O)C(C)C)c1 [Compound-15]	4.41

###

measurement-setup: human, 4 h, pH 7.4
Structures can show the parent of a compound that is named as a salt.
# binarize The cumulative amount of test compounds: threshold 2 mg inclusive, high side Condition met, low side Condition not met

compound	answer-label
CC(C)OC(=O)[C@H](Cc1ccc(OC(=O)c2ccccc2)c(OC(=O)c2ccccc2)c1)NC(=O)CN.Cl	Condition met
Br.CNCC(=O)OC(C)OC(=O)NCCc1ccc(OC(=O)c2ccccc2)c(OC(=O)c2ccccc2)c1 (stereo not shown)	Condition met
CC(C(=O)O)c1cccc(Oc2ccccc2)c1 (stereo not shown) [Compound-34, 2-(3-phenoxyphenyl) propionic acid, reference compound]	Condition not met
CCC(CC)C(=O)Oc1ccc(CCNC(=O)C2CCNCC2)cc1OC(=O)C(CC)CC.Cl	Condition met
CC(C)OC(=O)[C@H](Cc1ccc(OC(=O)c2ccccc2)c(OC(=O)c2ccccc2)c1)NC(=O)C1CCNCC1 [Compound-18, hydrochloride]	Condition met
CCN(CC)CCOC(=O)CC1=C(C)/C(=C/c2ccc([S+](C)[O-])cc2)c2ccc(F)cc21 (stereo not shown)	Condition met
CC(C)OC(=O)[C@H](Cc1ccc2c(c1)OC(=O)CC(N)C(=O)O2)NC(=O)OC(C)OC(=O)C(C)C (stereo partly shown) [Compound-20(a), hydrobromide]	Condition not met

###

measurement-setup: human, 1 h, pH 7.4
Structures can show the parent of a compound that is named as a salt.
The compounds listed here are annotated with their The cumulative amount of test compounds.

compound	The cumulative amount of test compounds / mg
CCN(CC)CCOC(=O)C(C)c1ccc(CC(C)C)cc1.Cl (stereo not drawn)	1.15
Br.CCC(CC)OC(=O)[C@@H](N)Cc1ccc(OC(=O)C(C)C)c(OC(=O)C(C)C)c1	0.55
CCN(CC)CCOC(=O)c1ccccc1Nc1c(Cl)ccc(C)c1Cl	0.85
CCCC(CCC)OC(=O)[C@@H](N)Cc1ccc(OC(=O)c2ccccc2)c(OC(=O)c2ccccc2)c1.Cl	0.53
CNCC(=O)Oc1ccc(C[C@H](NC(=O)OC(C)OC(=O)C(C)C)C(=O)OC(C)C)cc1OC(=O)c1ccccc1 (stereo partly drawn) [Compound-21(a), hydrochloride]	0.52
CCOC(=O)NCCc1ccc(OC(=O)CNC)c(OC(=O)c2ccccc2)c1 [Compound-9b, hydrochloride]	0.62
CCN(CC)CCOC(=O)CC1=C(C)/C(=C/c2ccc([S+](C)[O-])cc2)c2ccc(F)cc21 (stereo not drawn)	0.87
CCCN(CCC)CCOC(=O)c1cc(-c2ccc(F)cc2F)ccc1OC(C)=O.Cl	1.01
Br.CNCC(=O)OC(C)OC(=O)NCCc1ccc(OC(=O)c2ccccc2)c(OC(=O)c2ccccc2)c1 (stereo not drawn)	0.61

###

measurement-setup: human, 1 h, pH 7.4
Where a name gives a salt, the structure may show the parent alone.
# binarize The cumulative amount of test compounds: threshold 0.6 mg inclusive, high side fulfilled, low side not fulfilled

compound	answer-label
CCN(CC)CCOC(=O)c1ccccc1OC(C)=O.Cl	fulfilled
CNCC(=O)Oc1cc(C[C@H](NC(=O)OC(C)OC(=O)C(C)C)C(=O)OC(C)C)ccc1OC(=O)c1ccccc1 (some centres unmarked) [Compound-21(b), hydrochloride]	not fulfilled
CCC(CC)C(=O)Oc1ccc(CCNC(=O)OC2CCC3CCCCN3C2)cc1OC(=O)C(CC)CC (centres unmarked)	fulfilled
